Test system: spontaneously hypertensive rats (SHR)
Assay: Effect on reducing blood pressure of spontaneously hypertensive rats (SHR) by multiple oral administrations
Type: in vivo
Settings: Rattus norvegicus; 1.0 mg/kg oral once per day, SHR, 1 hour after the administration; read-out: Maximum blood pressure reduction, 7th-day administration

MOLECULE: CCOc1nc2cccc(C(=O)OCOC(=O)OCc3no[n+]([O-])c3C)c2n1Cc1ccc(-c2ccccc2-c2noc(=O)[nH]2)cc1
TARGET_UNDER_TEST: spontaneously hypertensive rats (SHR)
inhibition in vivo at 1 mg/kg [%]: 32
--
MOLECULE: CCOc1nc2cccc(C(=O)OC(C)OC(=O)OC(C)C)c2n1Cc1ccc(-c2ccccc2-c2noc(=O)[nH]2)cc1 (centres unmarked)
TARGET_UNDER_TEST: spontaneously hypertensive rats (SHR)
inhibition in vivo at 1 mg/kg [%]: 35
--
MOLECULE: CCOc1nc2cccc(C(=O)OC(C)OC(=O)OCc3no[n+]([O-])c3C)c2n1Cc1ccc(-c2ccccc2-c2noc(=O)[nH]2)cc1 (centres unmarked)
TARGET_UNDER_TEST: spontaneously hypertensive rats (SHR)
inhibition in vivo at 1 mg/kg [%]: 40
--
MOLECULE: CCOc1nc2cccc(C(=O)OCc3no[n+]([O-])c3CO[N+](=O)[O-])c2n1Cc1ccc(-c2ccccc2-c2noc(=O)[nH]2)cc1
TARGET_UNDER_TEST: spontaneously hypertensive rats (SHR)
inhibition in vivo at 1 mg/kg [%]: 39
--
MOLECULE: CCOc1nc2cccc(C(=O)OC(C)OC(=O)OCc3nc(C)c(C)nc3C)c2n1Cc1ccc(-c2ccccc2-c2noc(=O)[nH]2)cc1 (centres unmarked)
TARGET_UNDER_TEST: spontaneously hypertensive rats (SHR)
inhibition in vivo at 1 mg/kg [%]: 38
--
MOLECULE: CCOc1nc2cccc(C(=O)OCc3c(-c4ccccc4)no[n+]3[O-])c2n1Cc1ccc(-c2ccccc2-c2noc(=O)[nH]2)cc1
TARGET_UNDER_TEST: spontaneously hypertensive rats (SHR)
inhibition in vivo at 1 mg/kg [%]: 41
--
MOLECULE: CCOc1nc2cccc(C(=O)OCc3oc(=S)oc3C)c2n1Cc1ccc(-c2ccccc2-c2noc(=O)[nH]2)cc1
TARGET_UNDER_TEST: spontaneously hypertensive rats (SHR)
inhibition in vivo at 1 mg/kg [%]: 28
--
MOLECULE: CCOc1nc2cccc(C(=O)OCc3no[n+]([O-])c3C#N)c2n1Cc1ccc(-c2ccccc2-c2noc(=O)[nH]2)cc1
TARGET_UNDER_TEST: spontaneously hypertensive rats (SHR)
inhibition in vivo at 1 mg/kg [%]: 35
--
MOLECULE: CCOc1nc2cccc(C(=O)OCc3oc(=O)oc3C)c2n1Cc1ccc(-c2ccccc2-c2noc(=O)[nH]2)cc1 [Azilsartan medoxomil, reference compound]
TARGET_UNDER_TEST: spontaneously hypertensive rats (SHR)
inhibition in vivo at 1 mg/kg [%]: 34
--
MOLECULE: CCOc1nc2cccc(C(=O)OCc3no[n+]([O-])c3C)c2n1Cc1ccc(-c2ccccc2-c2noc(=O)[nH]2)cc1
TARGET_UNDER_TEST: spontaneously hypertensive rats (SHR)
inhibition in vivo at 1 mg/kg [%]: 38
--
MOLECULE: CCOc1nc2cccc(C(=O)OCOC(=O)C(C)(C)C)c2n1Cc1ccc(-c2ccccc2-c2noc(=O)[nH]2)cc1
TARGET_UNDER_TEST: spontaneously hypertensive rats (SHR)
inhibition in vivo at 1 mg/kg [%]: 40
